folding stability dG unfold overview
# METHOD: folding stability dG unfold from chymotrypsin proteolysis; higher = more stable
Be sure to follow the number with its unit.

Please review the entries below; each comes with its answer.
INSERT INTO results (seq_string, reported_measurement) VALUES
  ('SAGGRRKIEFEVWIPMDKDGEITPNEIIEEAREIAEALPNFDNVEIEEISIQHHPDGWTRYNITIEVPSAGG [r13_462_TrROS]', '2.42 kcal/mol'),
  ('SAGGLENLENFELVETLTVKLPNGDKPVTLTLYRHPDGPAENVTSYEGKKYVFVVTDDSIEFFEGGTSAGGS [r16_711_TrMRF]', '1.24 kcal/mol'),
  ('SAGGSAGGSAVLDPSSPRPFEIVEVRRVRFEATVSFAGRPRKLEIEVDLLLVRDPSNGRIGSAGGSAGGSAG [r3_391_TrMRF]', '3.54 kcal/mol'),
  ('SAGGSAGGSDPPVVTVEVKEETLPNGEKIYIVTVTREDGTTKTLKFPASTSEEEIKEKVEKLLSAGGSAGGS [r12_1019_JUSTAS]', '4.08 kcal/mol'),
  ('SAGGSAKVIAVPSLEEALKLAEEAAKEGKDIVVLFPDNRLLVVEVKPAPDDKPVLKLKVFEIPPELSAGGSA [r15_761_TrMRF]', '0.974 kcal/mol'),
  ('SAGGMVITIPTTTSSIEEAIEAVKKKVEEEGYKVTEIKDIKVSTDPKTGKINVTATVIVEKLPKEEKSAGGS [r16_155_JUSTAS]', '2.85 kcal/mol');

Note: attention shifts to another entry.
Sure, the documented folding stability dG unfold for SAGGSAGGSEEIYIKVTVEHPNGEKRTHEIERIRDKDGLPIKQIAKELAQEPNVRDVDVEIVKSAGGSAGGS [r12_199_TrROS] is -0.316 kcal/mol

###

folding stability dG unfold overview
# METHOD: folding stability dG unfold from chymotrypsin proteolysis; higher = more stable
Numbers only; they are read as kcal/mol.

Please review the entries below; each comes with its answer.
INSERT INTO measurements (seq_string, units_label, reported_measurement) VALUES
  ('SAGGSVRVETEFERLPDGPIVVRVRITLPNGETLEFTAVYYPEPSGIPMFVPEPVPPNAIEGIDIKVSAGGS [r16_95_TrMRF]', 'kcal/mol', 1.78),
  ('SAGGSAGGSAGAGKVVFEVDIKTFLGKRKDGSDAPKTIIEIKVFDIAPLDPNDPVLKALISAGGSAGGSAGG [r11_236_TrMRF]', 'kcal/mol', 3.54),
  ('SAGGSAGGSAIPPDAPVEVPVRVRVGGEEFDVTATLTARPDGSVGVDVDVDVPADEAEIEPASAGGSAGGSA [r18_428_TrMRF]', 'kcal/mol', 0.118),
  ('SAGGSADKITVRVMPSPDGMYRVKIWHPGKKREYWMNPDDPDKMLEEFADEINPDRPIKVEVEPYKSAGGSA [r15_925_TrROS]', 'kcal/mol', 0.913),
  ('SAGGSAEIEIVIVVPEGASEEQVKALAKELKEELEKLLKVKDKDGKEKEVKIKKIKITVIVLPKEESAGGSA [r15_717_TrROS_Hall]', 'kcal/mol', 2.56),
  ('SAGGKVVKTKEEAEKLVKEGKAEVVSVKKVKVPVNGKEKEVEVLEVKIKDKKTKKEKTIVLTKEQLKSAGGS [r16_271_TrROS_Hall]', 'kcal/mol', -0.863);

Note: attention shifts to another entry.
Sure, the documented folding stability dG unfold for SAGGARVFEVTFPDGSRARIVLLPDGTLLLETDSLDNLVALLEALGVELVSIRRHPDGRVLAVARLPPSAGG [r19_257_TrMRF] is 4.32
